- system.name: native human MET on living cells (human, UniProt P08581 25-1390)
- Sequence (P08581 25-1390): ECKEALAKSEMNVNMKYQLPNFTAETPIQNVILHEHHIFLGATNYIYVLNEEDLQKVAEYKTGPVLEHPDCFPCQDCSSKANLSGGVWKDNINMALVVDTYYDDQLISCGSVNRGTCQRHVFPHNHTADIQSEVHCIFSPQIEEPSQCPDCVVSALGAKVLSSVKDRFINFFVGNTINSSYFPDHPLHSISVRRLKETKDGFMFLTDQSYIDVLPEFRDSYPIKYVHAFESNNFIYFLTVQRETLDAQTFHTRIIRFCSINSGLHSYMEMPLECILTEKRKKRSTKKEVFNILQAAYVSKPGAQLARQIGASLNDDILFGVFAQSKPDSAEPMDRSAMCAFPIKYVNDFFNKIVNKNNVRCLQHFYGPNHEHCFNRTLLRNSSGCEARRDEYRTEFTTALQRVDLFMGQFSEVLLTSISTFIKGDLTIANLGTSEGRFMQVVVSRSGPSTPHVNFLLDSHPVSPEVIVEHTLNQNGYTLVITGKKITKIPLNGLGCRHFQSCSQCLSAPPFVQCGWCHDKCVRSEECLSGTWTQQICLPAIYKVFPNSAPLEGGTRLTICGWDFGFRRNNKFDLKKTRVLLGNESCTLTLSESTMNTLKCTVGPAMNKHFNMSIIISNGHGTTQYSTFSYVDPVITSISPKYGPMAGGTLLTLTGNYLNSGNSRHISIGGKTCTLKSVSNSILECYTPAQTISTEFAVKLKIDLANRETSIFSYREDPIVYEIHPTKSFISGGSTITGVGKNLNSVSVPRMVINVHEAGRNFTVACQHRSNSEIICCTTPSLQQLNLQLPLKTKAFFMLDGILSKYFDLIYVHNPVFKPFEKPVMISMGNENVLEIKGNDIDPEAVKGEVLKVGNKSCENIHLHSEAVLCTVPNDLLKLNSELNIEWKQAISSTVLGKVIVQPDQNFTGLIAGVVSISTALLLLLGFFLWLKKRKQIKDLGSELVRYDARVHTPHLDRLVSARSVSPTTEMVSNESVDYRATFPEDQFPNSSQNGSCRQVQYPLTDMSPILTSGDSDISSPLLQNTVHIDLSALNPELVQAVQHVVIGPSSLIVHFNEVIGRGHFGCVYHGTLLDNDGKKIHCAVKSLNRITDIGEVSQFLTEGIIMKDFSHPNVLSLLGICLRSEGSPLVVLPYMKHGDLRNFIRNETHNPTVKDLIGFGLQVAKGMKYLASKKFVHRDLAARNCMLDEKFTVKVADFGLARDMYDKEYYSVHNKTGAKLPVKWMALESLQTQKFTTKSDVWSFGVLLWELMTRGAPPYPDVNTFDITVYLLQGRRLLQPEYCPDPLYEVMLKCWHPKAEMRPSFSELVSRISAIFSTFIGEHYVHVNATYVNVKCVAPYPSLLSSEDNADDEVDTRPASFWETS
- test.method.notes: cell-based or functional assay
quantity.kind: protection from staurosporine, viability EMAX, MCF10A cells (%)
Just the number please, in %, no unit attached.

// solved cases for protection from staurosporine, viability EMAX, MCF10A cells follow
{"binder": "71D4 chimeric llama-human IgG1 mAb (antibody, V domains shown, llama VH on human IgG1 CH1-CH2-CH3, llama VL on human lambda CL) VH: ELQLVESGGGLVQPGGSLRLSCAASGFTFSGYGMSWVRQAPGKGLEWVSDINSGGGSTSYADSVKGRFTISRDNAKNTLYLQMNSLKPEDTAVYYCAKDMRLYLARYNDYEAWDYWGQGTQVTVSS VL: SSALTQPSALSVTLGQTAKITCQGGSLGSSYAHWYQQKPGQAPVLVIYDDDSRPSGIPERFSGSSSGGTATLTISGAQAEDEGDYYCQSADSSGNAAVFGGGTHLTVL", "quantity.unit": "%", "numeric.readout": 51.7}
{"binder": "71C3 chimeric llama-human IgG1 mAb (antibody, V domains shown, llama VH on human IgG1 CH1-CH2-CH3, llama VL on human lambda CL) VH: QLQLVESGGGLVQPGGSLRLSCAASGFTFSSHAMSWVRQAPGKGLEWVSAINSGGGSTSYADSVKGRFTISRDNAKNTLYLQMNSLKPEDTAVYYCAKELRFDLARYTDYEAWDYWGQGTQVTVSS VL: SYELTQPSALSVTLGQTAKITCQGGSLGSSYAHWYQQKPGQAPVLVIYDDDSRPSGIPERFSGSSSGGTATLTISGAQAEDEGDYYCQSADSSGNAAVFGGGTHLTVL", "quantity.unit": "%", "numeric.readout": 50.2}

Ask | Dear colleague, I am looking for the recorded protection from staurosporine, viability EMAX, MCF10A cells of the following binder: 71A3 chimeric llama-human IgG1 mAb (antibody, V domains shown, llama VH on human IgG1 CH1-CH2-CH3, llama VL on human lambda CL) VH: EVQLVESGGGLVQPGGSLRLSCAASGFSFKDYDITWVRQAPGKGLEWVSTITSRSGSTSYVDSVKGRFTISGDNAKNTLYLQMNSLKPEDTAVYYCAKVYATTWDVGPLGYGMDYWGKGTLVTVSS VL: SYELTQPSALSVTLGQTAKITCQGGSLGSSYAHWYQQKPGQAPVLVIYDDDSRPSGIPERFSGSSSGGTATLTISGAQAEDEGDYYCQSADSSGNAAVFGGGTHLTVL
Reply | 71.7
